The reported numbers originate from patent US7371748B2.

SUBJECT_OF_TEST: human adenosine A2A receptor (Homo sapiens, UniProt P29274)
Construct: expressed in transfected cells; host or cells: CHO cells, Semliki Forest virus expression system; membrane preparation
Sequence (P29274 whole entry): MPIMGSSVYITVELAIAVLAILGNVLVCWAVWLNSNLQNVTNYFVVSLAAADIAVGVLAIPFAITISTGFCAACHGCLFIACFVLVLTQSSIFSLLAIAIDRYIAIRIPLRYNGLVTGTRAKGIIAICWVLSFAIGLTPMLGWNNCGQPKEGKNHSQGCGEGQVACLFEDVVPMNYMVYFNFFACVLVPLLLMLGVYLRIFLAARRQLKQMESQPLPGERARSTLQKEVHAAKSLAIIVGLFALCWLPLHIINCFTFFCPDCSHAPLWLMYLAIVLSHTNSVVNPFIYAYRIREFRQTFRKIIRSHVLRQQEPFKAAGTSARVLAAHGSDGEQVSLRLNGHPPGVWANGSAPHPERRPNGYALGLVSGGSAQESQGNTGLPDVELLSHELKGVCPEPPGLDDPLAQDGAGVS
TEST_SUMMARY: [3H]-SCH-58261 binding assay, human adenosine A2A receptor
EXPERIMENTAL_CONDITIONS: human A2A receptor recombinantly expressed in CHO cell membranes; [3H]-SCH-58261 1 nM; Ki from IC50 by Cheng-Prussoff equation; read-out: Ha2 (pKi) (converted)
Mark t only when Ki stays strictly below 2 nM. Values equal to the cut-off are f.

Exercise: Below 2 nM on Ki? Entry COc1ccc(C2CCOCC2)c2sc(NC(=O)N3CCC(C)(O)CC3)nc12
Key: t

Exercise: Hi there! Is Ki for COc1ccc(C2CCOCC2)c2sc(NC(=O)C[C@H]3CC[C@H](O)CC3)nc12 below 2 nM, do you know?
Key: f

Exercise: In the record for COc1ccc(C2CCOCC2)c2sc(NC(=O)N(C)[C@H]3CC[C@H](O)CC3)nc12 , is Ki less than 2 nM?
Key: f

Exercise: Say whether its Ki is strictly beneath 2 nM. Entry: COc1ccc(C2COCCOC2)c2sc(NC(=O)c3ccc(CCl)cc3)nc12
Key: t

Exercise: Please indicate whether the reported Ki of COc1ccc(C2CCOCC2)c2sc(NC(=O)N(C)C3CCOCC3)nc12 is strictly below 2 nM.
Key: f

Exercise: For this compound, is Ki lower than 2 nM? COc1ccc(C2COCCOC2)c2sc(NC(=O)c3ccnc(N4CCCC4)c3)nc12
Key: f

====

SUBJECT_OF_TEST: human adenosine A2A receptor (Homo sapiens)
Construct: expressed in transfected cells; host or cells: CHO cells, Semliki Forest virus expression system; membrane preparation
TEST_SUMMARY: [3H]-SCH-58261 binding assay, human adenosine A2A receptor
EXPERIMENTAL_CONDITIONS: Ha2 (pKi), human A2A receptor recombinantly expressed in CHO cell membranes; [3H]-SCH-58261 1 nM; Ki from IC50 by Cheng-Prussoff equation
EXPERIMENTAL_READOUT: pKi
// field semantics: pKi = negative decimal log of concentration (mol/L)

Exercise: Check the records and state pKi for COc1ccc(C2CCOCC2)c2sc(NC(=O)N3CCC4(CC3)OCCO4)nc12
Key: 8.80

====

SUBJECT_OF_TEST: human adenosine A2A receptor (Homo sapiens)
Construct: expressed in transfected cells; host or cells: CHO cells, Semliki Forest virus expression system; membrane preparation
TEST_SUMMARY: [3H]-SCH-58261 binding assay, human adenosine A2A receptor
EXPERIMENTAL_CONDITIONS: human A2A receptor recombinantly expressed in CHO cell membranes; [3H]-SCH-58261 1 nM; Ki from IC50 by Cheng-Prussoff equation; read-out: Ha2 (pKi) (converted)
EXPERIMENTAL_READOUT: Ki (nM)
Just the number please, in nM, no unit attached.

Exercise: For the compound COc1ccc(C2CCOCC2)c2sc(NC(=O)N(C)C3CC4CCC3O4)nc12 (single isomer, unassigned) [Example 56] , give its reported Ki.
Key: 3.16

Exercise: Provide only the value of recorded Ki for COc1ccc(C2CCOCC2)c2sc(NC(=O)N(C)[C@H]3CC[C@@H](O)CC3)nc12
Key: 2.51

Exercise: Annotate the compound COc1ccc(C2CCOCC2)c2sc(NC(=O)N3CCC(CO)CC3)nc12 with its measured Ki.
Key: 1

Exercise: Specify reported Ki for the compound shown: COc1ccc(C2COCCOC2)c2sc(NC(=O)c3cncn3C)nc12
Key: 1
